Just for reference, PubChem BioAssay (NCI) is where these values come from.

Experiment: NCI Yeast Anticancer Drug Screen. Data for the mec2-1 strain (AID 157)
Details: S. cerevisiae mec2-1 strain, at 5.0 µM (retest, dose inferred, filed as 0.5)
About 79,000 compounds went through this panel and 15% of them were active in at least one assay; those are over-represented in the sample as a whole. Active and inactive are the calls of the source. Rule as the data show it: active = growth inhibition above about 70%; inactive = the rest.
Hello, when you answer, please use one of the following outcomes: true (1) (active), false (0) (inactive)

The examples below pair each entry with its known result.
compound | assigned_label
O=C1c2ccccc2-c2c3c(cc4ccnc1c24)OCO3 | false (0)
C[As](C)SCCC(CCCCC(=O)O)S[As](C)C (centres undefined) | false (0)

Lookup: Recorded test outcome, item C=C(C)C1(CCCC)C(=O)NC(=S)NC1=O
Found: false (0)

Lookup: Recorded test outcome, item CCC[CH2][Sn]([N]=C=S)([N]=C=S)[N]=C=S.O=P(c1ccccc1)(c1ccccc1)c1ccccc1.O=P(c1ccccc1)(c1ccccc1)c1ccccc1
Found: false (0)

Lookup: Recorded test outcome, item O=C(N/N=C/c1cc(Cl)cc(Cl)c1[O-])c1ccccc1O.O=C(N/N=C/c1cc(Cl)cc(Cl)c1[O-])c1ccccc1O.[Mn+2]
Found: true (1)

Lookup: Recorded test outcome, item CC1CCC2(OC1)OC1CC3C4CC=C5CC(OC6OC(CO)C(OC7OC(C)C(OC8OC(C)C(O)C(O)C8O)C(O)C7O)C(O)C6OC6OC(C)C(O)C(O)C6O)CCC5(C)C4CCC3(C)C1C2C (centres undefined)
Found: true (1)

Lookup: Recorded test outcome, item CN[C@H]1C[C@@H]2O[C@@](C)([C@H]1OC)n1c3ccccc3c3c4c(c5c6ccccc6n2c5c31)C(=O)NC4
Found: true (1)

Lookup: Recorded test outcome, item O=C(C1C(c2ccccc2)N1C(c1ccccc1)c1ccccc1)C1C(c2ccccc2)N1C(c1ccccc1)c1ccccc1 (centres undefined)
Found: false (0)

Lookup: Recorded test outcome, item Nc1nc(N)c2c(Cl)c(CNc3ccc(C(=O)NC(CC(=O)O)C(=O)O)cc3)ccc2n1 (centres undefined)
Found: false (0)

Lookup: Recorded test outcome, item Cc1cc(N(CCCl)CCCl)ccc1CN1CCCN(Cc2ccc(N(CCCl)CCCl)cc2C)C1c1cccc(F)c1
Found: false (0)

Lookup: Recorded test outcome, item COC(=O)C1=C(C(=O)OC)C2OC1c1cc3ccccc3cc12
Found: false (0)

Lookup: Recorded test outcome, item O=c1ssc(Cl)c1Cl
Found: true (1)

Lookup: Recorded test outcome, item CCC(C)c1cc([N+](=O)[O-])cc([N+](=O)[O-])c1O (centres undefined)
Found: false (0)

Lookup: Recorded test outcome, item Oc1cccc2cccnc12 (tested in a mixture with another compound)
Found: false (0)

Lookup: Recorded test outcome, item CN1CSC(=S)N(C)C1
Found: false (0)

Lookup: Recorded test outcome, item CC(=O)[O-].CC(=O)[O-].O=C(N/N=C/c1cc(Cl)cc(Cl)c1[OH2+])c1ccncc1.[Mn+2]
Found: false (0)

Lookup: Recorded test outcome, item Cn1c2cccc(=O)c-2nc2ccccc21
Found: false (0)

Lookup: Recorded test outcome, item O=[As]c1ccc([N+](=O)[O-])cc1 (centres undefined)
Found: true (1)

Lookup: Recorded test outcome, item FC1(F)C(Cl)=[C]([Hg][C]2=C(Cl)C(F)(F)C(F)(F)C(F)(F)C2(F)F)C(F)(F)C(F)(F)C1(F)F
Found: false (0)
